The origin of these recorded values is ChEMBL document CHEMBL1629494.

Consider the following compounds and their measured MIC readings.
tested on: Mycobacterium avium; assay: Antimycobacterial activity against multidrug-resistant Mycobacterium avium 330/88 after 14 days by micromethod; assay type: functional; details: 330/88, 336 h

smilesNotation	limitQualifier	MIC [µM]
CC(=O)N[C@@H](Cc1ccccc1)C(=O)Oc1ccc(Br)cc1C(=O)Nc1ccc(C(F)(F)F)cc1	=	4
CC(=O)N[C@@H](Cc1ccccc1)C(=O)Oc1cc(Cl)ccc1C(=O)Nc1cccc(Cl)c1	=	4
CC(=O)N[C@@H](Cc1ccccc1)C(=O)Oc1ccc(Cl)cc1C(=O)Nc1ccc(C(F)(F)F)cc1	=	4
CC(=O)N[C@@H](Cc1ccccc1)C(=O)Oc1cc(Cl)ccc1C(=O)Nc1ccc(Br)cc1	=	4
CC(=O)N[C@@H](Cc1ccccc1)C(=O)Oc1cc(Cl)ccc1C(=O)Nc1ccc(Cl)cc1	=	8
CC(=O)N[C@@H](Cc1ccccc1)C(=O)Oc1ccc(Cl)cc1C(=O)Nc1ccc(Cl)c(Cl)c1	=	8
NNC(=O)c1ccncc1	>	250
CC(=O)N[C@@H](Cc1ccccc1)C(=O)Oc1ccc(Cl)cc1C(=O)Nc1ccc(Cl)cc1	=	8
CC(=O)N[C@@H](Cc1ccccc1)C(=O)Oc1ccc(Cl)cc1C(=O)Nc1cccc(Cl)c1	=	8
CC(=O)N[C@@H](Cc1ccccc1)C(=O)Oc1cc(Cl)ccc1C(=O)Nc1ccc(Cl)c(Cl)c1	=	8
Nc1ccc(C(=O)O)c(O)c1	=	32
CC(=O)N[C@@H](Cc1ccccc1)C(=O)Oc1ccc(Cl)cc1C(=O)Nc1ccc(Br)cc1	=	4
CC(=O)N[C@@H](Cc1ccccc1)C(=O)Oc1cc(Cl)ccc1C(=O)Nc1ccc(C(F)(F)F)cc1	=	16

---

tested on: Klebsiella pneumoniae; assay: Antibacterial activity against Klebsiella pneumoniae D11750/08 after 24 hrs by broth microdilution method; type: functional; conditions: D11750/08, 24 h
Consider the following compounds and their measured MIC readings.
reportedEndpoint: MIC

smilesNotation	studyTarget	reportedEndpoint	recordedValue
CC(=O)N[C@@H](Cc1ccccc1)C(=O)Oc1ccc(Br)cc1C(=O)Nc1ccc(C(F)(F)F)cc1	Klebsiella pneumoniae	MIC	> 500 µM
CC(=O)N[C@@H](Cc1ccccc1)C(=O)Oc1cc(Cl)ccc1C(=O)Nc1cccc(Cl)c1	Klebsiella pneumoniae	MIC	> 125 µM
CC(=O)N[C@@H](Cc1ccccc1)C(=O)Oc1cc(Cl)ccc1C(=O)Nc1ccc(Cl)c(Cl)c1	Klebsiella pneumoniae	MIC	> 125 µM
CC(=O)N[C@@H](Cc1ccccc1)C(=O)Oc1cc(Cl)ccc1C(=O)Nc1ccc(Br)cc1	Klebsiella pneumoniae	MIC	> 125 µM

---

test system: Mycobacterium tuberculosis; assay: Antimycobacterial activity against Mycobacterium tuberculosis H37Rv 331/88 after 21 days by micromethod; type: functional; settings: H37Rv 331/88, 504 h
reportedEndpoint: log10(MIC) (log10 of the value in µM)

smilesNotation	log10(MIC)
Nc1ccc(C(=O)O)c(O)c1	1.80
CC(=O)N[C@@H](Cc1ccccc1)C(=O)Oc1cc(Cl)ccc1C(=O)Nc1ccc(Cl)c(Cl)c1	0.30
CC(=O)N[C@@H](Cc1ccccc1)C(=O)Oc1cc(Cl)ccc1C(=O)Nc1ccc(Cl)cc1	0.60
NNC(=O)c1ccncc1	-0.30
CC(=O)N[C@@H](Cc1ccccc1)C(=O)Oc1cc(Cl)ccc1C(=O)Nc1ccc(C(F)(F)F)cc1	1.20
CC(=O)N[C@@H](Cc1ccccc1)C(=O)Oc1ccc(Cl)cc1C(=O)Nc1cccc(Cl)c1	0.60
CC(=O)N[C@@H](Cc1ccccc1)C(=O)Oc1ccc(Cl)cc1C(=O)Nc1ccc(C(F)(F)F)cc1	-0.30
CC(=O)N[C@@H](Cc1ccccc1)C(=O)Oc1ccc(Cl)cc1C(=O)Nc1ccc(Br)cc1	0.30
CC(=O)N[C@@H](Cc1ccccc1)C(=O)Oc1cc(Cl)ccc1C(=O)Nc1ccc(Br)cc1	0.60

---

system: Klebsiella pneumoniae; assay: Antibacterial activity against Klebsiella pneumoniae D11750/08 after 24 hrs by broth microdilution method; assay type: functional; settings: D11750/08, 24 h
reportedEndpoint: MIC

smilesNotation	recordedValue
CC(=O)N[C@@H](Cc1ccccc1)C(=O)Oc1ccc(Cl)cc1C(=O)Nc1ccc(Cl)cc1	> 125 µM
CC(=O)N[C@@H](Cc1ccccc1)C(=O)Oc1cc(Cl)ccc1C(=O)Nc1ccc(Cl)cc1	62.5 µM
CC(=O)N[C@@H](Cc1ccccc1)C(=O)Oc1cc(Cl)ccc1C(=O)Nc1ccc(C(F)(F)F)cc1	> 125 µM
CC(=O)N[C@@H](Cc1ccccc1)C(=O)Oc1ccc(Cl)cc1C(=O)Nc1ccc(C(F)(F)F)cc1	> 125 µM

---

Consider the following molecules and their measured MIC readings.
system: Mycobacterium avium; test: Antimycobacterial activity against Mycobacterium avium; assay type: functional

smilesNotation	MIC [µM]
CC(=O)N[C@@H](Cc1ccccc1)C(=O)Oc1ccc(Cl)cc1C(=O)Nc1ccc(Cl)c(Cl)c1	1
CC(=O)N[C@@H](Cc1ccccc1)C(=O)Oc1cc(Cl)ccc1C(=O)Nc1ccc(Br)cc1	1
CC(=O)N[C@@H](Cc1ccccc1)C(=O)Oc1cc(Cl)ccc1C(=O)Nc1ccc(C(F)(F)F)cc1	1
CC(=O)N[C@@H](Cc1ccccc1)C(=O)Oc1ccc(Cl)cc1C(=O)Nc1ccc(Br)cc1	1
CC(=O)N[C@@H](Cc1ccccc1)C(=O)Oc1ccc(Br)cc1C(=O)Nc1ccc(C(F)(F)F)cc1	1
CC(=O)N[C@@H](Cc1ccccc1)C(=O)Oc1cc(Cl)ccc1C(=O)Nc1cccc(Cl)c1	1
CC(=O)N[C@@H](Cc1ccccc1)C(=O)Oc1cc(Cl)ccc1C(=O)Nc1ccc(Cl)cc1	1
CC(=O)N[C@@H](Cc1ccccc1)C(=O)Oc1ccc(Cl)cc1C(=O)Nc1ccc(C(F)(F)F)cc1	1

---

Consider the following compounds and their measured logP readings.
assay: Lipophilicity, log P of the compound; assay type: physicochemical; conditions: octanol/water

smilesNotation	logP
CC(=O)N[C@@H](Cc1ccccc1)C(=O)Oc1ccc(Cl)cc1C(=O)Nc1ccc(Cl)c(Cl)c1	5.12
CC(=O)N[C@@H](Cc1ccccc1)C(=O)Oc1ccc(Cl)cc1C(=O)Nc1ccc(Br)cc1	4.83
CC(=O)N[C@@H](Cc1ccccc1)C(=O)Oc1ccc(Br)cc1C(=O)Nc1ccc(C(F)(F)F)cc1	5.19
CC(=O)N[C@@H](Cc1ccccc1)C(=O)Oc1ccc(Cl)cc1C(=O)Nc1ccc(C(F)(F)F)cc1	4.92
